Data origin: patent USRE46585

# study.target: T1, FcRn-p3 fusion protein (human, UniProt P55899 24-297; P61769 21-119)
# T1 construct: baculovirus expressed; coated on ELISA wells; not shown: amino terminal part of bacteriophage p3 protein and CVDE protein
# T1 sequence (P55899 24-297, chain 1 of 2): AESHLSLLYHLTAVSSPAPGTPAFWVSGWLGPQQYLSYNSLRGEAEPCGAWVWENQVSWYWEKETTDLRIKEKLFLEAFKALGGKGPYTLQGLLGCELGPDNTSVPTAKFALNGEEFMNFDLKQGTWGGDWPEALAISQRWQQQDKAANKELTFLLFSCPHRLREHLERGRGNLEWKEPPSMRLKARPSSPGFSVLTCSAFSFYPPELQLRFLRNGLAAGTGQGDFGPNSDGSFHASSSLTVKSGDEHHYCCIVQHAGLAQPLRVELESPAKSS
# T1 sequence (P61769 21-119, chain 2 of 2): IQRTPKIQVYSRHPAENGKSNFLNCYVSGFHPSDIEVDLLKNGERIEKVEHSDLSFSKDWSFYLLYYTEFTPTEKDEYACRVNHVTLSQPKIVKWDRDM
# measurement.description: phage ELISA pH6 (est.)
Reported Ratio/FWT values follow for various binders
All answers are understood in fold, so give the number only.

Below are worked cases with known answers.
binder	reported.result
T4A_34 (other, EU numbering) CPPCPAPELLGGPSVFLFPPKPKDTLMISRTPEVTCVVEDVSHEDPEVKFNWYVDGVEVHNAKTKPREEQYNSTYRVVSVLTVLHQDWLNGKEYKCKVSNKALPAPIEKTISKAKGQPREPQVYTLPPSRDELTKNQVSLTCLVKGFYPSDIVVEWESNGQPENNYKTTPPVLDSDGSFFLYSKLTVDKSRWKQGNVFSCSVMHEALHNHYTQKSLSLSPGK	4.3
T3A_41 (other, EU numbering) CPPCPAPELLGGPSVFLFPPKPKDTLMISRTPEVTCVVEDVSHEDPEVKFNWYVDGVEVHNAKTKPREEQYNSTYRVVSVLPVLHQDWLNGKEYKCKVSNKALPAPIEKTISKAKGQPREPQVYTLPPSRDELTKNQVSLTCLVKGFYPSDIVVEWESNGQPENNYKTTPPVLDSDGSFFLYSKLTVDKSRWQQGNVFSCSVMHEALHNHYTQKSLSLSPGK	7.2

Reported Ratio/FWT of C8A_41 (other, EU numbering) CPPCPAPELLGGPSVFLFPPKPKDTLMISRTPEVTCVVVDVSHEDPEVKFNWYVDGVEVHNAKTKPREEQYNSTYRVVSVLTVLHQDWLDGKEYKCKVSNKALPAPIEKTISKAKGQPREPQVYTLPPSRDELTKNQVSLTCLVKGFYPSDIAVEWVSNGQPENNYKTTPPVLDSDGSFFLYSKLTVDKSRWQQGNVFSCSVMHEALPYHYTQKSLSLSPGK : 8.8

Reported Ratio/FWT of C5A_63 (other, EU numbering) CPPCPAPELLGGPSVFLFPPKPKDTLMISRTPEVTCVVVDVSHEDPEVKFNWYVDGVEVHNAKTKPREEQYNNTYRVVSVLTVLHQDWLDGKEYKCKVSNKALPVPIEKTISKAKGQPREPQVYTLPPSRDELTKNQVSLTCLVKGFYPSDIAVEWESNGQPENNYKTTPPVLDSDGSFFLYSKLTVDKSRWQQGNVFSCSVMHEALHYHYTQKSLSLSPGK : 6.3

Reported Ratio/FWT of C5A_39 (other, EU numbering) CPPCPAPELLGGPSVFLFPPKPKDTLMISRTPEVTCVVVDVSHEDPEVKFNWYVDGVEVHNAKTEPREEQYNSTYRVVSVLTVLHQDWLDGKEYKCKVSNKALPAPIEKTISKAKGRPREPQVYTLPPSRDELTKNQVSLTCLVKGFYPSDIAVEWVSNGQPENNYKTTPPVLDSDGSFFLYSKLTVDKSRWQQGNVFSCSVMHEALHYHYTQKSLSLSPGK : 15.9
